Tested on: P. falciparum stage V gametocytes
Design: BacTiter-Glo ATP luminescence viability of purified stage V gametocytes in 384-well plates, per cent inhibition versus DMSO
Assay Setup: 48 h, 5 µM; inhibitor
Among all 13,000 compounds or so, about 3,200 (25%) showed an effect of 50% or more. The list shows a part of the results.
// reported % Inhibition for each item listed
# unit: % | format: bare number

[in] Can you look up the measured % Inhibition of CCOC(=O)c1cc2c(CCN3C(=O)c4ccccc4C3=O)cn(C)c2cc1-c1ccncc1 for me?
[out] 108.6

[in] Can you look up the measured % Inhibition of OCC1CCN(Cc2cccc(-c3ccc(-c4nc5ccc(F)cc5[nH]4)cc3)c2)CC1 for me?
[out] -11.78

[in] Can you look up the measured % Inhibition of CC(CCc1ccccc1)NCC(O)c1ccc2c(c1)S(=O)(=O)c1ccccc1N2 (stereo not shown) for me?
[out] -29.84

[in] Can you look up the measured % Inhibition of COc1ccc2nccc([C@@H](O)CN3CCC(NCc4cc5oc(=O)n(C)c5cc4F)CC3)c2c1 for me?
[out] -1.57

[in] Can you look up the measured % Inhibition of c1cc(CNCCN2CCNCC2)cc(-c2cccc(-c3nc4ccccc4[nH]3)c2)c1 for me?
[out] 95.66

[in] Can you look up the measured % Inhibition of CC(C)[C@H](NC(=O)c1ccc(O)c(-c2ccc(Cl)c(Cl)c2)c1)C(=O)NC1CCCCCC1 for me?
[out] 10.04

Continuing:
[in] Can you look up the measured % Inhibition of CCOC(=O)c1cn(CC)c2cc(OCc3ccccc3)ccc2c1=O for me?
[out] 0.3884

[in] Can you look up the measured % Inhibition of COc1ccc(-c2cccc(NC(=O)c3cccs3)c2)cc1CN1CCCN(C)CC1 for me?
[out] 87.2

[in] Can you look up the measured % Inhibition of OCCC1CCN(Cc2ccc(-c3ccc(-c4nc5ccccc5[nH]4)cc3)cc2)CC1 for me?
[out] -1.76

[in] Can you look up the measured % Inhibition of COc1ccc(Cl)c(CC2c3cc(O)c(Cl)cc3CCN2C)c1 (stereo not shown) for me?
[out] -67.78
